- assaySystem: Gamma-secretase (Homo sapiens) (UniProt Q96BI3+Q9NZ42+Q8WW43+P49768+Q92542+P49810)
- assay: Inhibition of gamma-secretase (unknown origin) expressed in N2a NL/N cells coexpressing betaAPPNL and NotchdeltaE assessed as Abeta40 secretion at 100 nM by ELISA
- Type: cell-based
Calls of active or inactive are those of the source. The calls are words filed in the database; no cut-off is given here.
Respond only with the outcome that fits, drawn from active, inactive

Query: How did this test come out for CC(=O)N[C@H]1CCC[C@@H]1C(=O)N[C@H]1CCC[C@@H]1C(=O)NCCC(=O)N[C@H]1CCC[C@@H]1C(=O)N[C@H]1CCC[C@@H]1C(=O)N[C@H]1CCC[C@@H]1C(=O)N[C@H]1CCC[C@@H]1C(=O)N[C@H]1CCC[C@@H]1C(=O)N[C@H]1CCC[C@@H]1C(=O)N[C@H]1CCC[C@@H]1C(=O)N[C@H]1CCC[C@@H]1C(=O)N[C@H]1CCC[C@@H]1C(N)=O ?
Response: active

Query: How did this test come out for CC(=O)N[C@H]1CCC[C@@H]1C(=O)N[C@H]1CCC[C@@H]1C(=O)N[C@H]1CCC[C@@H]1C(=O)N[C@H]1CCC[C@@H]1C(=O)N[C@H]1CCC[C@@H]1C(=O)N[C@@H](CC(=O)N[C@H]1CCC[C@@H]1C(=O)N[C@H]1CCC[C@@H]1C(=O)N[C@H]1CCC[C@@H]1C(=O)N[C@H]1CCC[C@@H]1C(=O)N[C@H]1CCC[C@@H]1C(=O)N[C@H]1CCC[C@@H]1C(N)=O)[C@@H](C)O ?
Response: inactive

Query: How did this test come out for CC(=O)N[C@H]1CCC[C@@H]1C(=O)N[C@H]1CCC[C@@H]1C(=O)N[C@H]1CCC[C@@H]1C(=O)N[C@H]1CCC[C@@H]1C(=O)N[C@H]1CCC[C@@H]1C(=O)N[C@H]1CCC[C@@H]1C(=O)N[C@H]1CCC[C@@H]1C(=O)N[C@H]1CCC[C@@H]1C(=O)N[C@@H](CCC(=O)O)CC(=O)N[C@H]1CCC[C@@H]1C(=O)N[C@H]1CCC[C@@H]1C(=O)N[C@H]1CCC[C@@H]1C(N)=O ?
Response: inactive
